# Test system: SK-MEL-2 melanoma
# ASSAY_NAME: NCI tumour cell line growth inhibition, 48 h
PROPERTY_LABEL: TGI

Here are 6 compounds together with their reported answers.
{"COMPOUND": "NC(=O)CCc1ccccc1Oc1nccc(-c2c(-c3ccc(F)cc3)ncn2C2CCNCC2)n1", "PROPERTY_LABEL": "TGI", "VALUE_REPORTED": "> 25 µM"}
{"COMPOUND": "CC(=O)Oc1ccc(Nn2c3ccccc3c3ccccc32)c(C)c1", "PROPERTY_LABEL": "TGI", "VALUE_REPORTED": "> 100 µM"}
{"COMPOUND": "CN1C(=O)CN2C(Cl)(Cl)C2(c2ccccc2)c2cc(Cl)ccc21 (configuration not stated)", "PROPERTY_LABEL": "TGI", "VALUE_REPORTED": "> 100 µM"}
{"COMPOUND": "CCN(CC)C(=S)N/N=C/c1cc(OC)ccc1O", "PROPERTY_LABEL": "TGI", "VALUE_REPORTED": "> 100 µM"}
{"COMPOUND": "C#CCn1c(=O)c2cccnc2n(CC#C)c1=O", "PROPERTY_LABEL": "TGI", "VALUE_REPORTED": "> 100 µM"}
{"COMPOUND": "CC1(C)SCc2nc3ccccc3n21", "PROPERTY_LABEL": "TGI", "VALUE_REPORTED": "> 100 µM"}

Task: # get_value(readout='TGI', item= CC(=O)SC(SC(C)=O)SC(C)=O )
Output: > 100 µM

Task: Returns the measured TGI for the input compound. Input: COCC12CCC(OC)C34C5CC6(O)C(OC)C=C(C5C6OC(=O)c5ccccc5)C(C(OC)C13)C4N(C)C2 (configuration not stated)
Output: > 100 µM

Task: What value of TGI has been recorded for this entry: CCCCCCCCCC/C=C/C=O
Output: > 100 µM

Task: Name the reported TGI value associated with the compound Cc1ccc(SCC(CF)OC(C)n2cnc3c(Cl)nc(N)nc32)cc1 (configuration not stated)
Output: > 100 µM

Task: Query (compound): c1ccc(-c2cc(-c3ccncc3)cc(-c3ccncc3)n2)cc1 ; field requested: TGI
Output: > 100 µM

Task: I have this compound here, CCC1c2cc3n(c(=O)c2COC1O)Cc1c-3nc2ccccc2c1Cl (configuration not stated) , and I need its recorded TGI.
Output: > 100 µM

----------
Below, each of the compounds is paired with its reported TGI value.
# Tested on: HOP-62 NSCLC
# ASSAY_NAME: NCI tumour cell line growth inhibition, 48 h

// below: answered compounds
{"COMPOUND": "CCC(C)CC(C)C(=O)c1c(O)ccn(O)c1=O (configuration not stated)", "TGI": "> 100 µM"}
{"COMPOUND": "CC(C)OCc1cc(CN2CCN(c3cccc(Cl)c3)CC2)c(O)c2ncccc12", "TGI": "6.54 µM"}
{"COMPOUND": "CCOC(=O)C1=CNC(C(=O)OCC)C1c1cccn1-c1ccccc1 (configuration not stated)", "TGI": "> 100 µM"}
{"COMPOUND": "CCc1nc2ccccc2c(=O)n1/N=C(\\N=Nc1ccc(Cl)cc1)c1ccccc1", "TGI": "69.4 µM"}
{"COMPOUND": "O=C(/C=C/c1ccc(O)c(O)c1)NC(COC(=O)/C=C/c1ccc(O)c(O)c1)C(=O)O (configuration not stated)", "TGI": "> 100 µM"}

Next, consider the following compound.
Task: Given C=CCC12CCC(=O)[C@@]1(C)CC=C(O)C2=O (some centres not stated) , state its recorded TGI.
Output: > 100 µM

----------
Each item that follows carries a reported TGI.
# Tested on: CCRF-CEM leukemia
# ASSAY_NAME: NCI tumour cell line growth inhibition, 48 h

Previously resolved entries follow.
{"COMPOUND": "CSC1=C(C#N)C(=O)N(c2ccc(C)cc2)C(=O)C1C#N (stereo not drawn)", "TGI": "> 100 µM"}
{"COMPOUND": "N#Cc1c(-c2ccccc2)cc(-c2cccs2)c(C#N)c1N", "TGI": "> 100 µM"}

Attention now shifts to the item below.
Task: Reported TGI, compound CCC1c2cc3n(c(=O)c2COC1O)Cc1c-3nc2ccccc2c1Cl (stereo not drawn) : ____
Output: > 100 µM

----------
# System: SK-OV-3 ovarian
# ASSAY_NAME: NCI tumour cell line growth inhibition, 48 h; in the data active = GI50 below about 0.43 µM; inactive = the rest
Give your call using only these classes: active, inactive

{"COMPOUND": "CCN(CC)CC(O)COc1c(Br)c(Br)c(Br)c2c1OC(C)(C)C2 (stereo unspecified)", "LABEL_CLASS": "inactive"}
{"COMPOUND": "CCN1C(=O)N(CC)C2C1NC(=S)N2/N=C/C=C/c1ccccc1OC (stereo unspecified)", "LABEL_CLASS": "active"}
{"COMPOUND": "Cc1ccc(NC(=O)c2nc(S(C)(=O)=O)oc2-c2ccc(F)cc2)cc1Nc1ccc2ncn(C)c(=O)c2c1", "LABEL_CLASS": "inactive"}
{"COMPOUND": "COc1cc2c3c(n(CCCN4CCCNCC4)c(=O)c2cc1OC)-c1cc2c(cc1C3=O)OCO2", "LABEL_CLASS": "inactive"}
{"COMPOUND": "CCCOc1ccc(/C=N/Nc2cc(C)nc3ccc(Cl)cc23)cc1", "LABEL_CLASS": "inactive"}

Task: # outcome recorded in this test, key = Oc1ccc(Cc2ccc(O)c(C3CC(c4ccc(Cl)cc4)=NN3)c2)cc1C1CC(c2ccc(Cl)cc2)=NN1 (stereo unspecified)
Output: inactive

----------
# Test system: NCI-H226 lung
# ASSAY_NAME: NCI tumour cell line growth inhibition, 48 h
PROPERTY_LABEL: TGI

Task: What does the record list as TGI for c1ccc(-c2cc(-c3ccncc3)cc(-c3ccncc3)n2)cc1 ?
Output: > 100 µM

----------
# Tested on: MCF7 breast
# ASSAY_NAME: NCI tumour cell line growth inhibition, 48 h
PROPERTY_LABEL: TGI

Answered cases to consult:
{"MOLECULE": "COc1cc2c3c(n(CCCN4CCCNCC4)c(=O)c2cc1OC)-c1cc2c(cc1C3=O)OCO2", "TARGET": "MCF7 breast", "TGI": "6.29 µM"}
{"MOLECULE": "O=C(Oc1c(Br)cc(Br)cc1C(=O)Oc1ccccc1)C(=O)Oc1c(Br)cc(Br)cc1C(=O)Oc1ccccc1", "TARGET": "MCF7 breast", "TGI": "60.8 µM"}
{"MOLECULE": "O=Cc1ccc(-c2ccc(-c3ccc(C=O)o3)[se]2)o1", "TARGET": "MCF7 breast", "TGI": "> 100 µM"}
{"MOLECULE": "CCCCCCCC(CC(=O)NC(CO)C(=O)NC(CO)CC(C)C)OC(=O)CC(CCCCCCC)OC(=O)CC(CCCCCCC)OC1OC(C)C(O)C(OC2OC(C)C(O)C(O)C2O)C1O (centres undefined)", "TARGET": "MCF7 breast", "TGI": "> 52.3 µM"}
{"MOLECULE": "CC(C)OCc1cc(CN2CCN(c3cccc(Cl)c3)CC2)c(O)c2ncccc12", "TARGET": "MCF7 breast", "TGI": "11.5 µM"}

Task: Please look up its TGI: CCC(C)(C)[C@H](NC(=O)[C@H]1CCCCN1C)C(=O)N(C)[C@H](C[C@@H](OC(C)=O)c1nc(C(=O)N[C@@H](Cc2ccccc2)C[C@H](C)C(=O)O)cs1)C(C)C
Output: > 16.7 µM

Task: Could you share which TGI value was measured for Cc1cc(C)nc(NCCC(O)(P(=O)(O)O)P(=O)(O)O)n1 ?
Output: > 100 µM

----------
# Tested on: CCRF-CEM leukemia
# ASSAY_NAME: NCI tumour cell line growth inhibition, 48 h
Measured TGI, listed per entry.

Below, 2 molecules whose answers are already recorded.
{"MOLECULE": "CC1=NC=C(O)c2ccccc2O1", "TARGET": "CCRF-CEM leukemia", "TGI": "> 100 µM"}
{"MOLECULE": "COc1ccc(C2CC(c3ccc4ccccc4c3)=NN2c2nc(O)c(C3=c4cc(OC)ccc4=NC3=O)s2)cc1 (stereo not drawn)", "TARGET": "CCRF-CEM leukemia", "TGI": "> 43.3 µM"}

Here is the next item to consider.
Task: So what does the record say about TGI for O=c1c(O)cc2c(O)oc3c(=O)c(O)c(O)c4c(O)oc1c2c43 ?
Output: > 100 µM

----------
# Test system: SF-268 CNS
# ASSAY_NAME: NCI tumour cell line growth inhibition, 48 h
Each record here notes measured TGI.

// below: answered compounds
{"COMPOUND": "CCCn1c(=O)c2nn3c(=O)n(CCC)c(=O)c3nn2c1=O", "VALUE_REPORTED": "> 100 µM"}
{"COMPOUND": "CCOC(=O)c1cn(CC)c2ccc3ccsc3c2c1=O", "VALUE_REPORTED": "> 100 µM"}
{"COMPOUND": "O=C([O-])CCc1ccccc1.O=C([O-])CCc1ccccc1.O=C([O-])CCc1ccccc1.O=C([O-])CCc1ccccc1.[Mo+2].[Mo+2]", "VALUE_REPORTED": "> 100 µM"}
{"COMPOUND": "N#Cc1c(-c2ccccc2)cc(-c2cccs2)c(C#N)c1N", "VALUE_REPORTED": "> 100 µM"}
{"COMPOUND": "NCCCNc1nc2ccc(Cl)cc2c2c(=O)c3cc(F)ccc3sc12", "VALUE_REPORTED": "18.2 µM"}
{"COMPOUND": "CCOC(=O)C1=CNC(C(=O)OCC)C1c1cccn1-c1ccccc1 (stereo unspecified)", "VALUE_REPORTED": "> 100 µM"}
{"COMPOUND": "Nc1nc(Br)nc2ncn(C3CC(O)C(CO)O3)c12 (stereo unspecified)", "VALUE_REPORTED": "> 100 µM"}
{"COMPOUND": "CC(=O)O[C@H]1CC[C@@]2(C)C(=CC[C@@H]3[C@@H]2CC[C@](C)(c2nnc(C)o2)[C@H]3CC#N)C1", "VALUE_REPORTED": "> 100 µM"}

Task: Query: TGI; subject: O=C(/C=C/c1nnc2n(Cc3ccccc3)c(=O)c3c4c(sc3n12)CCCC4)c1ccccc1
Output: > 100 µM

Task: Please look up its TGI: O=C(Cc1ccc(Nc2ccnc(C(F)(F)F)c2)cc1)N/N=C/c1ccccc1O
Output: > 73.8 µM

Task: What value of TGI has been reported for the following compound? O=C(Cc1ccccc1)NN1C(=O)C(Cl)C1c1cccc([N+](=O)[O-])c1 (stereo unspecified)
Output: > 100 µM

Task: Consider the compound shown here: CCN(CC)CC(O)COc1c(Br)c(Br)c(Br)c2c1OC(C)(C)C2 (stereo unspecified) What is its recorded TGI?
Output: 26.3 µM

Task: So what's the measured TGI for this one? CO[C@H]1O[C@@H]2OC3(C)CCC4[C@H](C)CCC([C@H]1C)[C@]42OO3 (stereo partly specified)
Output: > 100 µM

Task: TGI lookup needed for O=[N+]([O-])/C=C/c1cc2ccc3ccccc3c2[nH]1 , thanks.
Output: 4.02 µM

Task: Any idea what TGI was measured for CCN1C(=O)N(CC)C2C1NC(=S)N2/N=C/C=C/c1ccccc1OC (stereo unspecified) ?
Output: > 100 µM

Task: Using the record for COc1ccc(C2CC(c3ccc4ccccc4c3)=NN2c2nc(O)c(C3=c4cc(OC)ccc4=NC3=O)s2)cc1 (stereo unspecified) , report its TGI.
Output: 0.241 µM
